assay system: recombinant HA of influenza A H3 A/Sydney/97 (influenza A virus H3 A/Sydney/97)
test description: recombinant HA ELISA (AttoPhos fluorescence, mean of triplicates)
Reported values of fold reactivity over background (fold over background) for individual entries
Could you keep your reply to the number by itself?

1) TRL579 (antibody, V domains shown) VH: QVQLVQSGAEVKKPGASVKVSCKTSGYTFTAYTIHWVRQAPGQRLEWMGWINAGNGHTKYSQRFKGRVTITRDTSARTTYMELRSLTSEDTALYFCARGPETYYYDKTNWLNSHPDEYFQHWGHGTQVTVSS VL: DIQMTQSPSTLSASVGDRVTITCRASQTINNYLAWYQQKPGKAPKLLIYKASSLESGVPSRFSGSGSGTEFTLTISSLQPDDFATYYCQEYNNDSPLTFGGGTKVEIKR: 25.6
2) TRL845 (antibody, V domains shown) VH: QVQLVQSGGDLVQPGGSLRLSCAASGFTFSRYSMNWVRQAPGMGLEWVAYISDTSRTIYYADSVKGRFTISRDNAKNSLYLQMKSLRDEDTAVYYCARDPDTPFVRAFDSWGQGTLVTVSS VL: DIVLTQSPSFLSASVGDRVTITCRASQLISSYFAWYQQKPGKPPKLLIYAASTLQSGVPSRFSGSGSGTQFSLTISSLQPEDFATYYCQQLNSYPPITFGQGTRLEIKR: 1.1

Let us move to another entry and its fold reactivity over background (fold over background).
Given the binder TRL847 (antibody, V domains shown) VH: QVQLVESGGGLVQPGGSLRLSCVASGFTFSRFSMNWVRQAPGMGLEWVSYISDTGRTIYYADSVKGRFTISRDNDKNTLYLQMKSLRDEDSAFYYCARDPDTPFVRAFDSWGQGVLVTVSS VL: DIVMTQSPSFLSASVGDRVTITCRTSQVISSYLAWYQQRPGKAPKLLIYAASTLQSGVPSRFSGSGSGTRFSLTISNLQPEDFATYFCQQLTTYPPITFGQGTRLEIKR , write its reported fold reactivity over background (fold over background).
1

Data provenance: patent US20170189529A1
